Test system: RARg homodimer (NR concentration 270 nM)
Measurement Notes: PBM binding z-score (relative to random genomic background probes); higher = stronger binding; sequences stand for … in GC…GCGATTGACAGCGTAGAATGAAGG
Quantity: PBM binding z-score
Quick one: just the number, no unit, thanks!

See these solved cases before continuing.
ATATGTAGGTTTGGGTCATTCAGAAAGTAGGGAA: 1.33
AGATTGAGGTTACCAAAGATCAGGGAAACGCTTG: 1.94
CCGTGTAGGTTACGAGGGGGCATTCAGTGCGAAT: 3.23

Prompt: Write down measured PBM binding z-score (RARg homodimer (NR concentration 270 nM)) for this sequence. CGTCTAAGGTCAAGGTCAGTGAAAGAGACTCGAA
Response: 8.01

Prompt: Look up RARg homodimer (NR concentration 270 nM) data: PBM binding z-score of AGAACGAGGGCAATGAGTTCATAGCACGGGTGGC , then report it.
Response: 2.56

Prompt: // output PBM binding z-score; input CGAACTAGGTCAAAGGACGGTGAAAGGCGACGTA ; system RARg homodimer (NR concentration 270 nM)
Response: 4.3

Prompt: Answer briefly: PBM binding z-score recorded on RARg homodimer (NR concentration 270 nM) for ATCGAAAGGTCGAGGAGGTGAGTATACACCGTTT
Response: 4.23

Prompt: Report its PBM binding z-score with RARg homodimer (NR concentration 270 nM) as the test system: TTACCAAGGTTAAAGGTCGTTGATGCACGCCTTG
Response: 3.09

Prompt: // fetch PBM binding z-score; item: ACTAGTGGGTCAGCTGAGGTCACACACAATTCGG ; system: RARg homodimer (NR concentration 270 nM)
Response: 6.44

Prompt: Return reported PBM binding z-score for target or system RARg homodimer (NR concentration 270 nM), item ATATGGAGGTTAAGGGTCATTCAGGTTGGTTCGC .
Response: 4.13

Prompt: Retrieve PBM binding z-score on RARg homodimer (NR concentration 270 nM); query CGAACTAGGTCAAAGGACAGTGTAAGGCGACGTA
Response: 4.55

Prompt: Enter recorded PBM binding z-score with RARg homodimer (NR concentration 270 nM) for CCGACGGGGGCAGAAAGGTTACCATACCATCCGG here.
Response: 3.58

Prompt: State, for RARg homodimer (NR concentration 270 nM), measured PBM binding z-score of the sequence listed here: CGAACTAGGTCAGAACAGGACAGTTAAGGATGAT
Response: 3.49

Prompt: Lab note: RARg homodimer (NR concentration 270 nM) assay, enter PBM binding z-score for ACTTACGGGTCAACGAAGTTATAGCACGCGTATA here
Response: 4.65

Prompt: Provide RARg homodimer (NR concentration 270 nM) PBM binding z-score reading for CCTAGTTGGTCAAGGTCACACATGCTATAGGTAC .
Response: 4.71

Prompt: Print RARg homodimer (NR concentration 270 nM) PBM binding z-score for CGAACTAGGTCAGAGCAGGACAGTGAAGGATGAT .
Response: 3.25
